Data origin, for the record: patent US9907859B2

# ASSAY INFO: physchem
# CONDITION SET: 25 °C, aqueous with cosolvent or surfactant or cyclodextrin, Solubility of ST-246, 25 ° C.
PROPERTY NAME: solubility (µg/mL)
Response body: numeric value in µg/mL, unit text excluded.

For O=C(NN1C(=O)C2C3C=CC(C4CC34)C2C1=O)c1ccc(C(F)(F)F)cc1 (stereo not shown) , write its solubility.
7570

---

# ASSAY INFO: in vivo
# CONDITION SET: female, mouse, po, 2000 mg/kg, AUC0-24
PROPERTY NAME: AUC(0-t) (µg·h/mL)
Response body: numeric value in µg·h/mL, unit text excluded.

For O=C(NN1C(=O)C2C3C=CC(C4CC34)C2C1=O)c1ccc(C(F)(F)F)cc1 (stereo not shown) [ST-246] , write its AUC(0-t).
607
